B1: glmS ribozyme (parent)
chain: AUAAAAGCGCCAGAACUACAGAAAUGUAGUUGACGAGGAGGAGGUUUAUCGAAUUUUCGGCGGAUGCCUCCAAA

- Variants of: B1
- assay details: self-cleavage kobs at 640 uM GlcN6P; higher = faster cleavage; RNA array
- recorded conditions: with glucosamine-6-phosphate
Fewer inactive variants are shown than the library holds.
quantity measured: self-cleavage kobs at 640 uM GlcN6P (s⁻¹)
Your answer should be a plain number; it is taken to be in s⁻¹.

Looking for the measured self-cleavage kobs at 640 uM GlcN6P of `AUAAAAGCGCCAGAACUACAGAAAUGUAGUUGACGAGGAGGAGGUUUAUCGAAAUUUCGGCGGAUGCGUCCAAA` , can you help?
8.94e-05

Looking for the measured self-cleavage kobs at 640 uM GlcN6P of `AUAAAAGCGCCAGAACUACAGAAAUGUAGUUGACGAGGAGGAGGUUUUUCGACUUUUCGGCGGAUGCGUCGAAA` , can you help?
9.77e-05

Looking for the measured self-cleavage kobs at 640 uM GlcN6P of `AUAAAAGCGCCAGAGCUACAGAAAUGUAGUUGACGAGGAGGAGGUUUAUCGAAUUUUCUGCGGAUGCCUCCAAA` , can you help?
2.79e-05
